# System: NY (Osteosarcoma)
# protocol notes: combination Emax (second highest fraction inhibited in the dose matrix, 72 h); higher = more inhibition; extreme values may be limits of the assay
Catalogue of compounds with associated combination Emax
The answer should be a number; do not append a unit.

>  <compound>
Cc1cc2ncnn2cc1Nc1ncc2c(n1)n(C1CCOCC1)c(=O)n2C [AZD7648] + CCN(CCO)CCCOc1ccc2c(Nc3cc(CC(=O)Nc4cccc(F)c4)[nH]n3)ncnc2c1 [AZD2811] (first compound max 10 µM, 7x7, partner max 1 µM)

>  <combination Emax>
0.242

$$$$

## Input # combination Emax lookup, item N#Cc1cnc(Nc2cc(NC[C@H]3CNCCO3)c(C(F)(F)F)cn2)cn1 [SRA737] + Nc1ccn([C@@H]2O[C@H](CO)[C@@H](O)C2(F)F)c(=O)n1 [Gemcitabine] (first compound max 10 µM, 7x7, partner max 0.3 µM)
## Output 0.808

## Input # combination Emax lookup, item CCc1c2c(nc3ccc(O)cc13)-c1cc3c(c(=O)n1C2)COC(=O)[C@]3(O)CC [SN-38] + CN(C)CCCOc1ccc(-c2ccc3ncc4c(c3c2)n(C2CCOCC2)c(=O)n4C)cn1 [AZD0156] (first compound max 0.3 µM, 7x7, partner max 1 µM)
## Output 0.855

## Input # combination Emax lookup, item C[C@@H](Oc1cc(-c2cnn(C3CCNCC3)c2)cnc1N)c1c(Cl)ccc(F)c1Cl [Crizotinib] + CC1=C(C(=CC=C1)Cl)NC(=O)C2=CN=C(S2)NC3=CC(=NC(=N3)C)N4CCN(CC4)CCO [Dasatinib] (first compound max 10 µM, 7x7, partner max 2 µM)
## Output 0.519

## Input # combination Emax lookup, item CC(=O)c1c(C)c2cnc(Nc3ccc(N4CCNCC4)cn3)nc2n(C2CCCC2)c1=O [Palbociclib] + Cc1c2c(nn1C)CSCc1cc(n(C)n1)CSc1cc(c3ccccc3c1)OCCCc1c(C(=O)O)n(C)c3c-2c(Cl)ccc13 [AZD5991] (first compound max 10 µM, 7x7, partner max 1 µM)
## Output 0.534

## Input # combination Emax lookup, item COc1nnc2ccc(N3CCC(c4ccc(OCCN5CCN(C)C(=O)[C@H]5C)cc4)CC3)nn12 [AZD5153] + Cc1c2c(nn1C)CSCc1cc(n(C)n1)CSc1cc(c3ccccc3c1)OCCCc1c(C(=O)O)n(C)c3c-2c(Cl)ccc13 [AZD5991] (first compound max 1 µM, 7x7, partner max 1 µM)
## Output 0.688

## Input # combination Emax lookup, item COc1cccc(OCCCN)c1-c1cc(Nc2cnc(C#N)cn2)n[nH]1 [Prexasertib] + CN(C)CCCOc1ccc(-c2ccc3ncc4c(c3c2)n(C2CCOCC2)c(=O)n4C)cn1 [AZD0156] (first compound max 1 µM, 7x7, partner max 1 µM)
## Output 0.62

## Input # combination Emax lookup, item CN(CCO)CC[C@H](CSc1ccccc1)Nc1ccc(S(=O)(=O)NC(=O)c2ccc(N3CCC([C@@H](O)c4ccccc4-c4ccc(Cl)cc4)CC3)cc2)cc1S(=O)(=O)C(F)(F)F [AZD4320] + Cn1cnc2c(F)c(Nc3ccc(Br)cc3Cl)c(C(=O)NOCCO)cc21 [Selumetinib] (first compound max 1 µM, 7x7, partner max 3 µM)
## Output 0.556

## Input # combination Emax lookup, item Cn1cnc2c(F)c(Nc3ccc(Br)cc3Cl)c(C(=O)NOCCO)cc21 [Selumetinib] + C=CCn1c(=O)c2cnc(Nc3ccc(N4CCN(C)CC4)cc3)nc2n1-c1cccc(C(C)(C)O)n1 [AZD1775] (first compound max 10 µM, partner max 1 µM)
## Output 0.527
